tested_on: T1, human LAP-TGFB1 Fc fusion (human)
T1 construct: also called human LAP-TGFβ1-Fc; human LAP-TGFβ-Fc isoform 1
test_details: BLI off-rate screen
Exercise: state measured Binding response for each of the binders provided.
// unit must come after the numeric part

Reported Binding response, binder VH H35R (62BIT) (Fab, V domains shown, Light chain: parental 20E6 LC, implied) VH: EVQLVQSGAEVKKPGASVKVSCKASGYTFTSYWMRWVRQAPGQGLEWMGRIDPQSGGIKYAQKFQGRATLTVDTSTSTAYMELSRLRSDDTAVYYCARWDYGGYFDVWGQGTLVTVSS VL: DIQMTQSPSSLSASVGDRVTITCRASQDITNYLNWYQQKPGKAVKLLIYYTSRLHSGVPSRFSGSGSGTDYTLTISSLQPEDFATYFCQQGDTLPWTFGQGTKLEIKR : ____
0.021 nm

Reported Binding response, binder VH S31K (24BIT) (Fab, V domains shown, Light chain: parental 20E6 LC, implied) VH: EVQLVQSGAEVKKPGASVKVSCKASGYTFTKYWMHWVRQAPGQGLEWMGRIDPQSGGIKYAQKFQGRATLTVDTSTSTAYMELSRLRSDDTAVYYCARWDYGGYFDVWGQGTLVTVSS VL: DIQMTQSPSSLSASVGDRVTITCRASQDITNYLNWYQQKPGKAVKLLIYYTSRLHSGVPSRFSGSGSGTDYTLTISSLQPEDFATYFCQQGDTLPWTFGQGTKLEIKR : ____
0.625 nm
